Data origin: patent US10112907B2

Test system: Scleraxis (Scx) gene transcriptional activation in TT-D6 Scx-luciferase (ScxL) cell line
Assay: SCX-LUC in vitro assay (Scx-luciferase reporter)
Format: cell-based
Conditions: Mus musculus, 96 h; Table 3; four days; read-out: Scx-Luc (EC50 μM)
measurement-type: EC50 (µM)

Record excerpt, results attached:
molecule | EC50, µM
Cc1cc(S(=O)(=O)N2CCCC(F)(F)C2)ccc1-c1ccc2[nH]nc(N)c2c1C [Example 79] | 1.52
Cc1cc(S(=O)(=O)NC2CC(O)(C(F)(F)F)C2)ccc1-c1ccc2[nH]nc(N)c2c1F (stereo not shown) [Example 71] | 0.108
Nc1n[nH]c2ccc(-c3ccc(S(=O)(=O)NC4CC(F)(F)C4)cc3Cl)c(Cl)c12 [Example 67] | 0.535
Cc1cc(S(=O)(=O)NC2CCOCC2)ccc1-c1ccc2[nH]nc(N)c2c1C [Example 21] | 1.26
Cc1cc(S(=O)(=O)N2C[C@@H](F)[C@@H](F)C2)ccc1-c1ccc2[nH]nc(N)c2c1C [Example 82] | 0.524
Cc1cc(S(=O)(=O)NC2CC(O)(c3ccccc3)C2)ccc1-c1ccc2[nH]nc(N)c2c1C (stereo not shown) [Example 52] | 0.578
Cc1cc(S(=O)(=O)N[C@H]2C[C@@H](O)C2)ccc1-c1ccc2[nH]nc(N)c2c1Cl [Example 30] | 0.752
COc1c(-c2ccc(S(=O)(=O)N[C@H]3C[C@](O)(C(F)(F)F)C3)cc2Cl)ccc2[nH]nc(N)c12 [Example 65] | 1.22
Cc1cc(S(=O)(=O)N(C)C2CC(F)(F)C2)ccc1-c1ccc2[nH]nc(N)c2c1C [Example 63] | 0.222
COc1c(-c2ccc(S(=O)(=O)N3CC(F)(F)C[C@H]3CO)cc2Cl)ccc2[nH]nc(N)c12 [Example 86] | 0.731

[P] Cc1cc(S(=O)(=O)N[C@H]2CCC[C@@]2(C)O)ccc1-c1ccc2[nH]nc(N)c2c1C [Example 59]
[Q] Cc1c(-c2ccc(S(=O)(=O)N[C@@H]3CCC[C@@H]3O)cc2Cl)ccc2[nH]nc(N)c12 [Example 39]
# query: argmin of EC50 over P and Q State the label of the item chosen.
Q
(Q: 0.362 µM, P: 3.32 µM)

---

Biological target: recombinant human Jak1 (aa 866-1154) (Homo sapiens (Human), UniProt P23458)
Sequence (P23458 866-1154): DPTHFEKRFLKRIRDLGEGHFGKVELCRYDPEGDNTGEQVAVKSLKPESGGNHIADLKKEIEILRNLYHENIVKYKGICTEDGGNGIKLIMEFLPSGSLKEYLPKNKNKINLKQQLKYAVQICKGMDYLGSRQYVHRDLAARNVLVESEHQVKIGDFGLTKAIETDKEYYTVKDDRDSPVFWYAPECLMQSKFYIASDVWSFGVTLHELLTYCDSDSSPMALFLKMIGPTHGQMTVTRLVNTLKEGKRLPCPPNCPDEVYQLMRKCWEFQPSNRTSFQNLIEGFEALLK
Experiment: Kinase selectivity panel, substrate peptide phosphorylation (Caliper)
Type: biochemical
measurement-type: IC50 (µM)
Give the value in µM but do not write µM after it.

Given the molecule N#Cc1ccc(COc2ccc(-c3cccc4nc(NC(=O)C5CC5)nn34)cc2)cn1 [reference compound] , what is its reported IC50?
0.001

---

Tested on: Tenomodulin (Tnmd) gene expression in rat tail tendon fascicles
Assay: Ex vivo assay, Tnmd mRNA in tendon fascicles (qPCR)
Type: cell-based, Sprague Dawley rat
Settings: Table 1, read-out: Ex vivo Tnmd (EC50 uM)
measurement-type: EC50 (µM)
Give the value in µM but do not write µM after it.

molecule | measurement-type | unit-text | result
CC1(C)CN(C(=O)c2ccc(-c3cccc4nc(NC(=O)C5CC5)nn34)cc2)C1 [reference compound] | EC50 | µM | 3.69
N#Cc1ccc(COc2ccc(-c3cccc4nc(NC(=O)C5CC5)nn34)cc2)cn1 [reference compound] | EC50 | µM | 1.31
C[C@@H](O)c1nc2cnc3[nH]ccc3c2n1[C@H]1CCCOC1 [reference compound] | EC50 | µM | 4.19
COc1ccc(-c2nc3c(NCC4CCNCC4)c(Cl)cnc3[nH]2)c(F)c1 [reference compound] | EC50 | µM | 0.08
C1=C/COCc2cc(ccc2OCCN2CCCC2)Nc2nccc(n2)-c2cccc(c2)COC/1 [reference compound] | EC50 | µM | 6.71

# value lookup — system Tenomodulin (Tnmd) gene expression in rat tail tendon fascicles, readout EC50, item N#CCNC(=O)c1ccc(-c2ccnc(Nc3ccc(N4CCOCC4)cc3)n2)cc1 [reference compound]
3.27

# value lookup — system Tenomodulin (Tnmd) gene expression in rat tail tendon fascicles, readout EC50, item C[C@@H](O)c1nc2cnc3[nH]ccc3c2n1[C@@H]1CCCOC1 [reference compound]
6.11

# value lookup — system Tenomodulin (Tnmd) gene expression in rat tail tendon fascicles, readout EC50, item O=C(Nc1nc2cccc(-c3ccc(OCc4ccc[n+]([O-])c4)cc3)n2n1)C1CC1 [reference compound]
5.99

# value lookup — system Tenomodulin (Tnmd) gene expression in rat tail tendon fascicles, readout EC50, item C[C@@H](O)c1nc2cnc3[nH]ccc3c2n1[C@H]1CC[C@H](C#N)CC1 [reference compound]
6.38

# value lookup — system Tenomodulin (Tnmd) gene expression in rat tail tendon fascicles, readout EC50, item CS(=O)(=O)NCc1nc2cnc3[nH]ccc3c2n1[C@@H]1C[C@H]2CC[C@@H]1C2 [reference compound]
4.57
